Test: pFTAA binding assay of synthetic peptides
Assay type: physicochemical
Conditions: 200 μM peptide, rotation 5 days, room temperature; pFTAA 0.5 μM
readout-name: pFTAA Binding

Example substances with recorded pFTAA Binding:
SEFSKK    ●
EVYKWT    ●
DLVVFE    ●
IGVVGW    ●

Fill in reported pFTAA Binding for this entry: EDCFIL
●

Specify reported pFTAA Binding for the substance shown: NFSIRY
●

Identify pFTAA Binding associated with the substance LHCLRR
●

Please give the documented pFTAA Binding of VVVNKM
●

Please give the documented pFTAA Binding of VYTVFA
●

Indicate the recorded pFTAA Binding value for this substance: STVISY
●

# return recorded pFTAA Binding for entry YFTAIQ
●

// Input: FVIEEV . Output its pFTAA Binding only.
●

Specify reported pFTAA Binding for the substance shown: IQVYSR
●

Supply reported pFTAA Binding belonging to this substance: CEFLRK
●

Complete the entry with pFTAA Binding for NLYEKT
●

###

Test: Amyloid-forming properties of the peptide screen (overall call from Th-T, pFTAA, TEM)
Format: physicochemical
Settings: overall amyloid-forming call
readout-name: Amyloid

IGVVGW    ●
VDMAMC    ●
TIFLDF    ●
IIYNWQ    ●
VNIELL    ●
QIIEIE    ●

Annotate the substance AAYLWV with its measured Amyloid.
●

Determine from records and report Amyloid for NDAFVL
●

Specify reported Amyloid for the substance shown: LNLKLL
●

Using known records, supply Amyloid for ASLTIL
●

Consider the substance INFEFS . State its measured Amyloid.
●

Identify the reported Amyloid for the following entry. QVFVWV
●
